The molecules listed here are annotated with their log10 of IC50.
Biological target: Murine COX II (Mus musculus, UniProt Q05769)
Construct: A 2.0 kb fragment containing the coding region
Sequence (Q05769 18-604): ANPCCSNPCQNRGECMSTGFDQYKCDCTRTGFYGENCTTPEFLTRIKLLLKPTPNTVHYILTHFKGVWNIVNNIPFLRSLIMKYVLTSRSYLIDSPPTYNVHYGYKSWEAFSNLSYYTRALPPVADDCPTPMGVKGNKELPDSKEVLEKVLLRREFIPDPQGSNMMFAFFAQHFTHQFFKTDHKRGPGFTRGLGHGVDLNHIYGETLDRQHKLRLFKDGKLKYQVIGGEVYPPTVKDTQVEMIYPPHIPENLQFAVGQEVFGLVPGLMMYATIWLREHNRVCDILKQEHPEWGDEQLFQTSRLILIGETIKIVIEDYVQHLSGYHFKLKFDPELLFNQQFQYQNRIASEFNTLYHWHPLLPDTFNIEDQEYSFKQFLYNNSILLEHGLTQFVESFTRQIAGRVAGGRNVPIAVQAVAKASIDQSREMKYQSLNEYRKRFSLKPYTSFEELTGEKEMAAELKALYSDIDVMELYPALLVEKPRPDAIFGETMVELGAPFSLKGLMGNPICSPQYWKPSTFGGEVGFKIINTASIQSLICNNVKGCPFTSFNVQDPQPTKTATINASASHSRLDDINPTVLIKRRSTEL
Test: Assay for COX II activity in vitro (PGE2 ELISA, recombinant enzyme)
Conditions: read-out: Murine COX II ID50
Would you kindly interpret these values as log10 of IC50 expressed in nM?

• CCOC(=O)c1sc(C(=O)O)c(-c2ccc(F)cc2)c1-c1ccc(S(C)(=O)=O)cc1 = 3.74
• CS(=O)(=O)c1ccc(-c2cscc2-c2ccc(F)nc2)cc1 = 2.30
• CS(=O)(=O)c1ccc(-c2c(Br)sc(Br)c2-c2ccc(F)cc2)cc1 = 3.18
• COc1ccc(-c2cscc2-c2ccc(OC)cc2)cc1 = 2.90

Field log10 of IC50 (entry CS(=O)(=O)c1ccc(-c2c(C(=O)O)sc(C(=O)O)c2-c2ccc(F)cc2)cc1 ) reads 3.67
